# Test system: P388 murine leukemia cell lines
# assay_text: Cytotoxicity against P388 murine leukemia cells
# recorded_conditions: read-out: Cytotoxicity IC50, P388; P388 murine leukemia cells
The entries below are paired with their reported pIC50.
Scale: pIC50 equals -log10([C]), with [C] in mol/L.

compound=C=C1[C@@H](OC(C)=O)C[C@H]2C(C)(C)C[C@H](Cl)C[C@]2(C)[C@H]1C[C@H](O)[C@H]1CC(=O)NC1=O measured_result=5.68

Here is the next item to consider.
Exam item: Please report the recorded pIC50 for C=C1[C@@H](O)C[C@H]2C(C)(C)CCC[C@]2(C)[C@H]1C[C@H](O)[C@H]1CC(=O)NC1=O [compound 8, haterumaimide Q] .
Marked response: 6.70

* * *

# Test system: P388 murine leukemia cell lines
# assay_text: Cytotoxicity against P388 murine leukemia cells
# recorded_conditions: Mus musculus, P388, read-out: Cytotoxicity IC50 against P388
observable: IC50

Exam item: Please report the recorded IC50 for C=C1[C@@H](O)C[C@H]2C(C)(C)[C@@H](Cl)[C@H](Cl)C[C@]2(C)[C@H]1C[C@H](O)[C@H]1CC(=O)NC1=O [compound 4, dichlorolissoclimide, reference compound] .
Marked response: ~400 nM
